# assayed target: recombinant human QC (Homo sapiens)
# Construct: His6 (N)
# Sequence (Q16769 29-361): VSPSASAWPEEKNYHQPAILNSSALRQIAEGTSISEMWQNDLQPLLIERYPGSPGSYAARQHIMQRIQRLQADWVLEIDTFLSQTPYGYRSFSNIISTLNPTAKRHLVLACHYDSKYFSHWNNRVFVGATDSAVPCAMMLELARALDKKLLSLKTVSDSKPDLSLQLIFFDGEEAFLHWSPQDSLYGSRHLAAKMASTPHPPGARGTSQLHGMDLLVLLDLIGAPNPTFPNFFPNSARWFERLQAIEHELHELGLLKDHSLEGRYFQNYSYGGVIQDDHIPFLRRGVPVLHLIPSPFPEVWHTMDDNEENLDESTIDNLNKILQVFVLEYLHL
# protocol description: Assay 4 - QC potency, mass spectrometry-based enzymatic potency assay
# particulars: mass spectrometry read-out; read-out: QC Pot. Assay No. 4
outcome measure: IC50

Before answering, review these 3 worked examples.
compound="Cc1c2c(nn1C)C(=O)N(c1ccc3[nH]cnc3c1)C2c1ccc(N2CCC(C)(C)C2=O)cc1 (stereo not shown)" outcome_measure=IC50 observed="25 to 100 nM"
compound="Cc1c2c(nn1C)C(=O)N(c1ccc3[nH]cnc3c1)C2c1ccc(N2CCC(F)(F)C2)cc1F (stereo not shown) [FRPPO-028A]" outcome_measure=IC50 observed="25 to 100 nM"
compound="CCCOc1ccc(C2c3c(nn(C)c3C)C(=O)N2c2ccc3[nH]cnc3c2)c(Cl)c1 (stereo not shown)" outcome_measure=IC50 observed="25 to 100 nM"

The record that follows has no IC50 shown yet.
Just so you know, measured IC50 for Cc1c2c(nn1C)C(=O)N(c1ccc3[nH]cnc3c1)C2c1ccc(N2CCCCCC2=O)cc1 (stereo not shown) came out at 100 to 5000 nM

---

# assayed target: human isoQC (S53-L382) (Homo sapiens, UniProt Q9NXS2)
# Construct: enzymatically active region of human isoQC (S53-L382; see, e.g., Huang et al., 2011); GST-Enterokinase site (N, cleaved yes); made in house; host or cells: E. coli
# Sequence (Q9NXS2 53-382): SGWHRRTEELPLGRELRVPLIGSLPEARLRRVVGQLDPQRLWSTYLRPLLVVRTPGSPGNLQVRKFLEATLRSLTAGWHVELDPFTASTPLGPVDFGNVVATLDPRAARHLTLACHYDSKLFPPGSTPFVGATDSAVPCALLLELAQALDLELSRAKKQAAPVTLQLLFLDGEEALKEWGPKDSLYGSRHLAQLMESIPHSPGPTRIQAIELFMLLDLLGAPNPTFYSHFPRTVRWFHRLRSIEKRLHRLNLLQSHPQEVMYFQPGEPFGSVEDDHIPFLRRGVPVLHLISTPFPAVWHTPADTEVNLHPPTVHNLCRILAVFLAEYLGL
# protocol description: Assay 2 - isoQC potency, mass spectrometry-based enzymatic potency assay
# Assay type: biochemical
# particulars: mass spectrometry read-out, 7.5 nM isoQC, 10 μM H-Gln-AMC; read-out: isoQc Pot. Assay No. 2
pIC50: −log10 of the molar value.
outcome measure: pIC50

Provide pIC50 values for the following items, in order.
1. Cc1c2c(nn1C)C(=O)N(c1ccc3[nH]cnc3c1)C2c1ccc(N2CCCC2=O)cc1 (centres unmarked) [FRPPO-016]
2. Cc1c2c(nn1C)C(=O)N(c1ccc3[nH]cnc3c1)C2c1ccc(N2CCC(F)(F)C2)cc1F (centres unmarked) [FRPPO-028A]
3. Cc1c2c(nn1C)C(=O)N(c1ccc3[nH]cnc3c1)C2c1cccc(F)c1F (centres unmarked) [FRPPO-012]
4. CCCOc1ccc(C2c3c(nn(CC)c3C)C(=O)N2c2ccc3[nH]cnc3c2)cc1 (centres unmarked) [FRPPO-029]
5. CCCOc1ccc(C2c3c(nn(C4CCC4)c3C)C(=O)N2c2ccc3[nH]cnc3c2)cc1 (centres unmarked) [FRPPO-033]
6. Cc1c2c(nn1C)C(=O)N(c1ccc3[nH]cnc3c1)C2c1ccc(N2CCCCC2=O)cc1 (centres unmarked) [FRPPO-017]

> 7.60
> 7.60
> 7.60
7.00 to 7.60
5.30 to 7.00
7.00 to 7.60

Kindly give each listed record's pIC50.
1. CCCOc1ccc(C2c3c(nn(C)c3C)C(=O)N2c2ccc3[nH]cnc3c2)c(Cl)c1 (centres unmarked) [FRPPO-004]
2. Cc1c2c(nn1C)C(=O)N(c1ccc3[nH]cnc3c1)C2c1cc(F)cc(F)c1F (centres unmarked) [FRPPO-013]

["> 7.60", "7.00 to 7.60"]

---

# assayed target: human isoQC (S53-L382) (Homo sapiens)
# Construct: enzymatically active region of human isoQC (S53-L382; see, e.g., Huang et al., 2011); GST-Enterokinase site (N, cleaved yes); made in house; host or cells: E. coli
# protocol description: Assay 2 - isoQC potency, mass spectrometry-based enzymatic potency assay
# Assay type: biochemical
# particulars: mass spectrometry read-out, 7.5 nM isoQC, 10 μM H-Gln-AMC; read-out: isoQc Pot. Assay No. 2
outcome measure: IC50

Record IC50 for all entries; do not skip any.
1. Cc1c2c(nn1C)C(=O)N(c1ccc3[nH]cnc3c1)C2c1ccc2nsnc2c1 (stereo not drawn)
2. CCCOc1ccc(C2c3c(nn(C)c3C)C(=O)N2c2ccn3ccnc3c2)cc1 (stereo not drawn)
3. CCCOc1ccc(C2c3c(nn(CC(F)F)c3C)C(=O)N2c2ccc3[nH]cnc3c2)cc1 (stereo not drawn)
4. CCCOc1ccc(C2c3c(nn(C)c3C3CC3)C(=O)N2c2ccc3[nH]cnc3c2)cc1 (stereo not drawn)
5. CCCOc1ccc(C2c3c(nn(COC)c3C)C(=O)N2c2ccc3[nH]cnc3c2)cc1 (stereo not drawn)

< 25 nM
25 to 100 nM
100 to 5000 nM
25 to 100 nM
25 to 100 nM

For each of the molecules below, note its IC50.
1. CCCOc1ccc(C2c3c(nn(C)c3C)C(=O)N2c2ccc3[nH]cnc3c2)c(C)c1 (stereo not drawn)
2. Cc1c2c(nn1C)C(=O)N(c1ccc3[nH]cnc3c1)C2c1ccc(Oc2cnn(C)c2)cc1 (stereo not drawn)
3. CCCOc1ccc(C2c3c(nn(C4CCOCC4)c3C)C(=O)N2c2ccc3[nH]cnc3c2)cc1 (stereo not drawn)
4. CCCOc1ccc(C2c3c(nn(CC4CC4)c3C)C(=O)N2c2ccc3[nH]cnc3c2)cc1 (stereo not drawn)

1. 25 to 100 nM
2. < 25 nM
3. 100 to 5000 nM
4. 100 to 5000 nM
